Record form. Attribute: normalized RNA/DNA level with ligand (log10). Fill in for each entry.
B1: library; a variant is named by its letters at N, in order (parent)
chain: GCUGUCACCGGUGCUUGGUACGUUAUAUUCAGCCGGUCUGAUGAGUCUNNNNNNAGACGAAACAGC

Variants of: B1
ASSAY: normalized RNA/DNA level with ligand (relative to sTRSVctl = 100) (log10 (% of sTRSVctl)); HEK293T overexpressing SLC46A1; ligand concentration (+) RNA-Seq: 6 mM; higher = less ribozyme self-cleavage, higher mRNA level
CONDITION LABEL: with (6R,S)-folinic acid; ligand present: yes
Answer with the value's number alone.

Prompt: Item under review: GUUAAA . Reported normalized RNA/DNA level with ligand (log10)?
Completion: 2

Prompt: Item under review: GCUACC . Reported normalized RNA/DNA level with ligand (log10)?
Completion: 2.05

Prompt: Item under review: AUGCAG . Reported normalized RNA/DNA level with ligand (log10)?
Completion: 2

Prompt: Item under review: AUGGGG . Reported normalized RNA/DNA level with ligand (log10)?
Completion: 2.03

Prompt: Item under review: GAUGUG . Reported normalized RNA/DNA level with ligand (log10)?
Completion: 2.02

Prompt: Item under review: AUAAGG . Reported normalized RNA/DNA level with ligand (log10)?
Completion: 1.99

Prompt: Item under review: GGCGCU . Reported normalized RNA/DNA level with ligand (log10)?
Completion: 2.1

Prompt: Item under review: GCUCGU . Reported normalized RNA/DNA level with ligand (log10)?
Completion: 2.02

Prompt: Item under review: AACGCC . Reported normalized RNA/DNA level with ligand (log10)?
Completion: 2.07

Prompt: Item under review: AGGCGG . Reported normalized RNA/DNA level with ligand (log10)?
Completion: 2.04

Prompt: Item under review: GGAGAA . Reported normalized RNA/DNA level with ligand (log10)?
Completion: 2.01

Prompt: Item under review: AAUAAA . Reported normalized RNA/DNA level with ligand (log10)?
Completion: 2

Prompt: Item under review: GUACAC . Reported normalized RNA/DNA level with ligand (log10)?
Completion: 2.03

Prompt: Item under review: AGCGCC . Reported normalized RNA/DNA level with ligand (log10)?
Completion: 2.03

Prompt: Item under review: AAUGCA . Reported normalized RNA/DNA level with ligand (log10)?
Completion: 2.02

Prompt: Item under review: AUUUAG . Reported normalized RNA/DNA level with ligand (log10)?
Completion: 2.01

Prompt: Item under review: UUAGCC . Reported normalized RNA/DNA level with ligand (log10)?
Completion: 1.99

Prompt: Item under review: CACUAG . Reported normalized RNA/DNA level with ligand (log10)?
Completion: 2.02

Prompt: Item under review: GAUGAG . Reported normalized RNA/DNA level with ligand (log10)?
Completion: 1.98

Prompt: Item under review: GACCUG . Reported normalized RNA/DNA level with ligand (log10)?
Completion: 2.03

Prompt: Item under review: UGUGAG . Reported normalized RNA/DNA level with ligand (log10)?
Completion: 1.91

Prompt: Item under review: GGCCAG . Reported normalized RNA/DNA level with ligand (log10)?
Completion: 2.02

Prompt: Item under review: UAGCUA . Reported normalized RNA/DNA level with ligand (log10)?
Completion: 2.03

Prompt: Item under review: CCUUUC . Reported normalized RNA/DNA level with ligand (log10)?
Completion: 2.01

Prompt: Item under review: ACAAGA . Reported normalized RNA/DNA level with ligand (log10)?
Completion: 2.02

Prompt: Item under review: UCCGGG . Reported normalized RNA/DNA level with ligand (log10)?
Completion: 2.05

Prompt: Item under review: CCUAUU . Reported normalized RNA/DNA level with ligand (log10)?
Completion: 2.04

Prompt: Item under review: GCGAAG . Reported normalized RNA/DNA level with ligand (log10)?
Completion: 2.05

Prompt: Item under review: UGUUAU . Reported normalized RNA/DNA level with ligand (log10)?
Completion: 1.97

Prompt: Item under review: AGAAUG . Reported normalized RNA/DNA level with ligand (log10)?
Completion: 2

Prompt: Item under review: UCCCUU . Reported normalized RNA/DNA level with ligand (log10)?
Completion: 2.01

Prompt: Item under review: UUGUAA . Reported normalized RNA/DNA level with ligand (log10)?
Completion: 2

Prompt: Item under review: UAAUCG . Reported normalized RNA/DNA level with ligand (log10)?
Completion: 1.99

Prompt: Item under review: GCGCUU . Reported normalized RNA/DNA level with ligand (log10)?
Completion: 2.05

Prompt: Item under review: ACGUGU . Reported normalized RNA/DNA level with ligand (log10)?
Completion: 2.06

Prompt: Item under review: CAUUAG . Reported normalized RNA/DNA level with ligand (log10)?
Completion: 1.98
